Every entry's value here was drawn from the supplement of paper PMC10724198.

Tested on: Saccharomyces cerevisiae
Assay: protein stability index of tFT-peptide fusion (C-terminal peptide) (PSI (0-1 scale)); higher = more stable (slower turnover)
Conditions: genetic background: wild type; temperature: 30 C
READOUT KIND: protein stability index
Number, no unit, nothing else.

>  <RESIDUE CODES>
WGGVGLRGGWDG

>  <ASSAYED SYSTEM>
Saccharomyces cerevisiae

>  <READOUT NUMBER>
0.713

$$$$
>  <RESIDUE CODES>
SSFFTTGAPRPP

>  <ASSAYED SYSTEM>
Saccharomyces cerevisiae

>  <READOUT NUMBER>
0.674

$$$$
>  <RESIDUE CODES>
LFGIGFFSFICS

>  <ASSAYED SYSTEM>
Saccharomyces cerevisiae

>  <READOUT NUMBER>
0.537

$$$$
>  <RESIDUE CODES>
PSPPPLSSPPSP

>  <ASSAYED SYSTEM>
Saccharomyces cerevisiae

>  <READOUT NUMBER>
0.642

$$$$
>  <RESIDUE CODES>
RTSRKKMLNFKY

>  <ASSAYED SYSTEM>
Saccharomyces cerevisiae

>  <READOUT NUMBER>
0.667

$$$$

response.value for `CPPRPCTASIVR` (field: protein stability index) = 0.632

The measured protein stability index associated with `SSALPPLLAFFL` reads 0.681

protein stability index reading for `AVSTYGAQAWNH` : 0.704

protein stability index measured on `IILVVLSRLYVI` = 0.564

# protein stability index (sequence: `EFVACFRLLVHG` ) is 0.392

* * *

Reported protein stability index values for the following sequences.
Test system: Saccharomyces cerevisiae
Experiment: protein stability index of tFT-peptide fusion (C-terminal peptide) (PSI (0-1 scale)); higher = more stable (slower turnover)
Settings: genetic background: das1 deletion; temperature: 30 C
I only need the number, thanks.

protein stability index recorded for this sequence, HSVWSQSTINND [YML034C-A C-terminal 12 aa] , is 0.725

Item: SKSFPTAGEMRA [PET8 C-terminal 12 aa] | protein stability index: 0.711

* * *

System: Saccharomyces cerevisiae
Assay: protein stability index of tFT-peptide fusion (C-terminal peptide) (PSI (0-1 scale)); higher = more stable (slower turnover)
Conditions: genetic background: wild type; temperature: 30 C
Measured protein stability index determines class: lower range: < 0.6; middle range: ≥ 0.6 and < 0.7; upper range: ≥ 0.7

>  <RESIDUE CODES>
PSPALPSLSTPL

>  <ANSWER LABEL>
middle range

$$$$
>  <RESIDUE CODES>
LSRSAGVGVWVG

>  <ANSWER LABEL>
lower range

$$$$
>  <RESIDUE CODES>
FAIRMHCLIFRC

>  <ANSWER LABEL>
lower range

$$$$
>  <RESIDUE CODES>
RAFGQGMGLAFS

>  <ANSWER LABEL>
upper range

$$$$
>  <RESIDUE CODES>
VSLYRRFLGVYS

>  <ANSWER LABEL>
lower range

$$$$
>  <RESIDUE CODES>
RSLSPPPASPIP

>  <ANSWER LABEL>
middle range

$$$$
>  <RESIDUE CODES>
WQVPYQRLAILF

>  <ANSWER LABEL>
lower range

$$$$
>  <RESIDUE CODES>
GIQSGGGGGKGG

>  <ANSWER LABEL>
middle range

$$$$

Determine which band this sequence sits in: `IWGLSSLYGCGW`
upper range

Looking at `GLYSIAGGSFGE` , which class would you pick?
upper range

Bin this entry: `TINSHNYKTKTP`
middle range

Sort `RGVRALFLLLSF` into one of the categories.
lower range

Which of the defined bands does the recorded protein stability index of `FGVDGVGVVVGY` sit within?
middle range

Please let me know in which category the item `VFLRVLLECLDF` belongs.
lower range

Exam item: assign `VGVRRAGGARGW` to the correct category.
middle range

Which category fits this record: `GDASLSSLHIRL`
middle range

Exercise: read the entry `LCRLTNVCGAVV` and state which class it falls under.
middle range

Sort `FLVVCGLLSWVW` into one of the categories.
lower range
